measurement-protocol: NCI Yeast Anticancer Drug Screen. Data for the bub3 strain (AID 167)
particulars: S. cerevisiae bub3 mutant strain, at 50.0 µM (retest, dose inferred, filed as 5.0)
Compounds without any hit were thinned out: in the full panel of roughly 79,000, 15% have a hit. Calls of active or inactive are those of the source. Cut-off read from the data, not from the text of the source: active = growth inhibition above about 70%; inactive = the rest.
Labels: 1 (active), 0 (inactive)

> print(dat)
                                    compound  answer.label
 1      O=C1c2ccccc2-c2nnc3c(c21)Cc1ccccc1C3             0
 2                   Cc1cc(Br)cc(C(=O)Cl)c1O             0
 3  CC(C)NC(=O)OCc1c(CO)c2c(n1C)-c1ccccc1CC2             1
 4  CC(/C=N/NS(=O)(=O)c1ccc(C)cc1)=C(c1ccccc1)c1ccccc1             1
 5  O=C(OC1C2CCC2C2CC21)c1cc([N+](=O)[O-])cc([N+](=O)[O-])c1 (stereo not given)             1
 6  Cc1ccc(NC(Nc2ccc(C)cc2C)=C(/C=C(\Cl)[N+](=O)[O-])[N+](=O)[O-])c(C)c1             1
 7  O=C(NC(=Nc1ccccc1)SCCSC(=Nc1ccccc1)NC(=O)c1ccccc1)c1ccccc1             0
 8  O=C1C2=C(c3ccccc31)C(c1ccccc1Cl)NC(=S)N2 (stereo not given)             0
 9  COc1ccc(N=Cc2cc(Br)cc(Br)c2O)cc1.COc1ccc(N=Cc2cc(Br)cc(Br)c2O)cc1.[Co]             0
10               O=c1cc(Cl)c(Cl)nn1-c1ccccc1             1

###

measurement-protocol: NCI Yeast Anticancer Drug Screen. Data for the sgs1 mgt1 strain (AID 161);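 note: 0% = growth of cultures given vehicle only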
particulars: S. cerevisiae sgs1 mgt1 strain, at 5.0 µM (retest, dose inferred, filed as 0.5), stronger effect = higher value
This is part of a sample that, as a whole, favours compounds with a hit. Of some 79,000 tested, about 15% had one in any assay. Active and inactive are the calls of the source. No stated cut-off is given here; in the data, active means growth inhibition above about 70%; inactive means the rest.
Parameter: growth inhibition. Scope: all listed entries.
reported-metric: growth inhibition

> print(dat)
                                    compound           result
 1       COc1ccc2ccccc2c1Cc1c(OC)ccc2ccccc12   -2% (inactive)
 2  CN(NC1OC(=O)c2ccccc21)c1ccc(C(F)(F)F)cc1[N+](=O)[O-] (stereo unspecified)   43% (inactive)
 3  Cn1c2nc(-[n+]3ccccc3)nc-2c([O-])n(C)c1=O   -1% (inactive)
 4       [N-]=[N+]=Nc1ccnc2ccc(C3CCCCC3)cc12   -8% (inactive)
 5                    N=C1c2ccccc2-c2ccccc21   10% (inactive)
 6  CC(C)(C)C(NO)C(O)N1CCCCC1 (stereo unspecified)  -59% (inactive)
 7  Cc1c2cc[n+](C)cc2c(C)c2c1[nH]c1ccc(Cl)cc12   48% (inactive)
 8  O=[N+]([O-])C1CCCC(C2=CSC3CCCCC3N2)C1 (stereo unspecified)  -26% (inactive)
 9  CC1CCCCN(CCN(Cc2ccccc2)c2ccccc2)C1 (stereo unspecified)   10% (inactive)
10  O=C1C(Br)CCC1(c1ccccc1)c1ccccc1 (stereo unspecified)    4% (inactive)
11                     N#CSc1ccc(O)c2ccccc12   19% (inactive)
12     O=C(O)CCC(c1ccccc1)(c1ccccc1)c1ccccc1   54% (inactive)
13   CO/C(=N\N=C(/c1ccccc1)C(F)(F)F)c1ccncc1   15% (inactive)
14             O=C(/C=C/C(=O)N1CCCC1)N1CCCC1    4% (inactive)
15    CC(=O)Nc1ccc(-c2ccccc2)cc1[N+](=O)[O-]   -2% (inactive)
16  CC12CCC(O)CC1=CCC1C2CCC2(C)c3nc(C#N)c(=N)n(O)c3CC12 (stereo unspecified)    6% (inactive)
17  Cn1c2c(c3ccccc31)CCN(CCN1CCN(c3cccc(Cl)c3)CC1)C2=O    1% (inactive)
18                     Cn1cnc(=S)c2[nH]cnc21   -2% (inactive)
19  Clc1ccc(CSc2ncnc3c2ncn3C2CCCCO2)cc1 (stereo unspecified)   15% (inactive)
20  CC1(C)OC2C(CO)OC(n3ncc(=S)[nH]c3=O)C2O1 (stereo unspecified)    4% (inactive)
21              c1ccc2c(c1)Nc1ccc3ccccc3c1S2   -1% (inactive)
22  OC(CCl)c1ccc2ccc3c(c2c1)Nc1ccccc1S3 (stereo unspecified)    2% (inactive)
23                      Oc1ccc2oc3ccccc3c2c1    0% (inactive)
24        CN(C)C(=S)/N=c1\ssc(=S)n1-c1ccccc1   50% (inactive)
25              O=C(Cl)c1ccc(N=Nc2ccccc2)cc1   -1% (inactive)
26          CC1=CCCc2c1cc1ccc3cccc4ccc2c1c34   -4% (inactive)
